The following compounds are listed with their measured IC50 values.
# Tested target: Polyunsaturated fatty acid 5-lipoxygenase (Homo sapiens)
# Sequence (P09917 whole entry): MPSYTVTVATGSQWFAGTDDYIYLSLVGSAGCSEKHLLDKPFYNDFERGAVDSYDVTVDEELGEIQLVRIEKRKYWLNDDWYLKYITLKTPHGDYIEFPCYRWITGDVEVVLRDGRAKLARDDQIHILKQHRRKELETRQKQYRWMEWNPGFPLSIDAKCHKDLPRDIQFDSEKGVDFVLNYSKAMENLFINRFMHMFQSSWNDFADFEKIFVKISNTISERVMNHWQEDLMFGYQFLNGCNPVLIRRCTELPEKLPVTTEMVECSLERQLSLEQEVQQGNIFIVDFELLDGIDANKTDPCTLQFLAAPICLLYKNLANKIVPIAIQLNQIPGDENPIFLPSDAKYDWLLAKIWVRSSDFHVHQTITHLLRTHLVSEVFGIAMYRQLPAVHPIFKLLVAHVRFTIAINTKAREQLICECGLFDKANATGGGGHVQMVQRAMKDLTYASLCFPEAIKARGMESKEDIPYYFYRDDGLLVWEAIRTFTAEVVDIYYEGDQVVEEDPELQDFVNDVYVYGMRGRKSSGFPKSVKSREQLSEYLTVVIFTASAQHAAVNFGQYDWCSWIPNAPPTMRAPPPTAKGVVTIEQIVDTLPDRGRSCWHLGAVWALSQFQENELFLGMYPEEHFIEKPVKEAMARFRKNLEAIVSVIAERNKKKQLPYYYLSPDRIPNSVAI
# Protocol description: Compound was tested for the inhibition of 5-lipoxygenase of human PMN stimulated by calcium ionophore A-23187 for the formation of 5-HETE
Endpoint name: IC50 (nM)

compound="CCCCC/C=C\\C/C=C\\[C@@H]1C[C@H]1/C=C\\C/C=C\\CCCC(=O)O (stereo in doubt; (-)-7a)" tested_target="Polyunsaturated fatty acid 5-lipoxygenase (Homo sapiens)" readout_value=1700
compound=CCCCC/C=C\C/C=C\[C@H]1CC(C)=C(C)C[C@H]1/C=C\C/C=C\CCCC(=O)O tested_target="Polyunsaturated fatty acid 5-lipoxygenase (Homo sapiens)" readout_value=1100
compound=CCCCC/C=C\C/C=C\[C@@H]1CC(C)=C(C)C[C@H]1/C=C\C/C=C\CCCC(=O)O tested_target="Polyunsaturated fatty acid 5-lipoxygenase (Homo sapiens)" readout_value=1000
compound="CCCCC/C=C\\C/C=C\\[C@@H]1C[C@H]1/C=C\\C/C=C\\CCCC(=O)O (stereo in doubt; (+)-7a)" tested_target="Polyunsaturated fatty acid 5-lipoxygenase (Homo sapiens)" readout_value=2900

Ref: ChEMBL document CHEMBL1149987
